# maps each entry to its melting point

compound="CCOc1ccc(Cc2cn(C3OC(COC(C)=O)C(OC(C)=O)C(OC(C)=O)C3OC(C)=O)c3cccc(F)c23)cc1 (centres undefined)" recorded_measurement="146 to 148 °C"
compound="Cc1ccc(S(=O)(=O)OCCC2COc3ccccc3O2)cc1 (centres undefined)" recorded_measurement="82 to 83 °C"
compound="CC(C)(C)C(O)(C=Cc1ccc(C2OCCO2)cc1)Cn1cncn1 (centres undefined)" recorded_measurement="110 °C"
compound=O=c1[nH]c2ncc(-c3ccc(-c4nc[nH]n4)cc3)nc2n1CCC1CCOCC1 recorded_measurement="263 to 266 °C"
compound="O=C(NC1CC1c1ccc(-c2ncn(-c3ccc(OC(F)(F)F)cc3)n2)cc1)Oc1ccccc1 (centres undefined)" recorded_measurement="171 to 173 °C"
compound=COC(=O)CCCCCCn1[nH]c(=O)n(C)c1=O recorded_measurement="80 to 81 °C"
compound=CC(C)(C)c1cc(C(=O)c2nccs2)cc2c1OCC2(C)C recorded_measurement="101 to 103 °C"
compound=O=C1CC2(CCCC2)C(=O)N1c1cc(Cc2n[nH]c(=O)c3ccccc23)ccc1F recorded_measurement="215 to 220 °C"

Could you now look at the following compound, please?
Field request: melting point | item: `O=C(O)C1=Cc2cc(F)c(N3CCC4(CC3)OCCCO4)nc2N(c2ccc(F)cc2F)C1`
177 to 178 °C
